Please go through the items and note down their Fold change (Log 2) vs untreated.
Tested on: CPS1
test-summary: RNA-seq, CPS1 expression in compound-treated primary human hepatocytes
Assay type: cell-based
Give bare numbers, in Log 2.

INSERT INTO assay_data (molecule, quantitative_readout) VALUES
  ('Anti mullerian hormone: member of the TGF-B gene family (protein, UniProt P03971 452-560, looked up) Muellerian-inhibiting factor: SAGATAADGPCALRELSVDLRAERSVLIPETYQANNCQGVCGWPQSDRNPRYGNHVVLLLKMQVRGAALARPPCCVPTAYAGKLLISLSEERISAHHVPNMVATECGCR', 2.35);

Switching to the query record.
Would you kindly share the measured Fold change (Log 2) vs untreated for GDF2 (BMP9): member of BMP family and the TGF-B superfamily (protein, UniProt Q9UK05 320-429, looked up) Growth/differentiation factor …: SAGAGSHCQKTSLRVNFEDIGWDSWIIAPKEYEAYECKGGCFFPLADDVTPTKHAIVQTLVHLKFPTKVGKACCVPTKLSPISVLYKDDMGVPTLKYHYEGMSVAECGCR ? 3.46
